The values you see were collected from PubChem BioAssay.

Protocol description: galactose survival enhancers in mitochondrial complex I cybrids – cell-based, galactose medium, ATP luminescence, primary screen (AID 1645843);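 also: positive z means more ATP and so rescue of galactose-driven cybrid death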
Reported conditions: complex I mutant cybrid cells, 72 h
The source made the active and inactive calls.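 The calls were made as follows: active = z-score of at least 1.8 in each of two replicates, scored against plate mean and spread of sample wells; inactive = the rest.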
Choose one outcome from this list and give only that: 1 = active, 0 = inactive

Completed entries (count: 2):
{"Compound": "COc1ccc(CNCC2COCCO2)cc1OC (configuration not stated)", "Assigned label": 1}
{"Compound": "Nc1ncc(Cc2ccccc2)s1", "Assigned label": 0}

Prompt: Entry NCCCNc1ccccc1[N+](=O)[O-] : call = ?
Completion: 0

Prompt: Entry COc1ccc(F)cc1-c1cnn(CC(=O)Nc2cc(C)nn2C)c1 : call = ?
Completion: 0

Prompt: Entry CC(O)c1cn(C2CCN(c3ncnc4nc[nH]c34)CC2)nn1 (configuration not stated) : call = ?
Completion: 0

Prompt: Entry CC(C)c1cc(C(=O)N2CCCC(c3ccc(Cl)cc3)C2)on1 (configuration not stated) : call = ?
Completion: 0

Prompt: Entry CC1CC2C3CCC4=CC(=O)C=C[C@]4(C)[C@@]3(F)C(O)C[C@]2(C)C1C(=O)CO (some centres not stated) : call = ?
Completion: 0

Prompt: Entry Cn1nc(C(=O)N2CCCCCC2)c2c1CCC(NCc1ccc(C(F)(F)F)cc1)C2 (configuration not stated) : call = ?
Completion: 0

###

Protocol description: growth inhibition, single agents and combos, LFS_MB_1R, cell-based, cisplatin or BGB combos, synergistic combos for chromothripsis tumors (AID 1671452);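 also: cells exposed for 96 hours before readout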
Reported conditions: LFS_MB_1R medulloblastoma cells, measured here: combination with cisplatin, at 0.5 µM, stronger effect = higher value
Threshold rule: inhibition greater than or equal to 10% is 1.0; below that, 0.0.

Completed entries (count: 7):
{"Compound": "NC(=O)c1cccc2[nH]c(-c3ccc(C4CCCN4)cc3F)nc12 (stereo not drawn)", "Assigned label": 0.0}
{"Compound": "O=C1N=c2ccccc2=C1c1c(O)[nH]c2ccccc12", "Assigned label": 1.0}
{"Compound": "CN(C)C(=S)NN=C(c1ccccn1)c1ccccn1", "Assigned label": 1.0}
{"Compound": "CO[C@H]1/C=C/O[C@@]2(C)Oc3c(C)c(O)c4c(O)c(c5c(c4c3C2=O)=NC2(CCN(CC(C)C)CC2)N=5)NC(=O)/C(C)=C\\C=C\\[C@H](C)[C@H](O)[C@@H](C)[C@@H](O)[C@@H](C)[C@H](OC(C)=O)[C@@H]1C", "Assigned label": 0.0}
{"Compound": "CC(C)(O)[C@H]1CC[C@@](C)(C2[C@@H](O)C[C@@]3(C)[C@@H]4C[C@H](O)C5C(C)(C)[C@@H](O)CCC56CC46CC[C@]23C)O1 (stereo partly drawn)", "Assigned label": 0.0}
{"Compound": "COc1ccc(-c2nc(-c3cc(C(F)(F)F)cc(C(F)(F)F)c3)n(Cc3ccc(C(N)=O)cc3)c2-c2ccc(OC)cc2)cc1", "Assigned label": 0.0}
{"Compound": "NC(=O)c1ncn(C2OC(CO)C(O)C2O)c1O (stereo not drawn)", "Assigned label": 1.0}

Now for a further compound.
Prompt: Could you please find out whether CC(C)C(=O)SCCCCCCC(=O)Nc1nc(-c2ccccc2)cs1 has inhibition that meets 10% or exceeds it?
Completion: 0.0

###

Protocol description: drug combination growth inhibition, ovarian cancer – cell-based, oncology-focused library, rucaparib conditional, profiling panel (AID 1508598)
Reported conditions: patient-derived ovarian cancer cells, CellTiter-Glo viability, 144 h; at 0.00488 µM; OCI-P5x cells; without rucaparib
The source made the active and inactive calls.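 Rule for the calls: active = normalized viability below 100% at a tested concentration; inactive = the rest.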
Choose one outcome from this list and give only that: active, inactive

Completed entries (count: 3):
{"Molecule": "COc1cccc2c1C(=O)c1c(O)c3c(c(O)c1C2=O)C[C@@](O)(C(C)=O)C[C@H]3O[C@H]1C[C@H](N)[C@H](O)[C@H](C)O1", "Assigned label": "active"}
{"Molecule": "COc1cc(=C2C=c3ccccc3=N2)[nH]/c1=C\\c1[nH]c(C)cc1C", "Assigned label": "active"}
{"Molecule": "CC[C@]1(O)C[C@@H]2CN(CCc3c([nH]c4ccccc34)[C@@](C(=O)OC)(c3cc4c(cc3OC)N(C=O)[C@@H]3C45CCN4CC=C[C@](CC)([C@H]45)[C@H](OC(C)=O)[C@]3(O)C(=O)OC)C2)C1 (some centres undefined)", "Assigned label": "active"}

Prompt: Entry CCOC(=O)c1[nH]c2cc(Cl)ccc2c1C(C(=O)NC(C)(C)C)N(C=O)Cc1ccc(Cl)cc1 (centres undefined) : call = ?
Completion: active

Prompt: Entry CCOC(=O)c1cnc2ccc(-c3cncc(NS(=O)(=O)c4ccccc4)c3)cn12 : call = ?
Completion: active

Prompt: Entry O=c1[nH]c(=O)n([C@@H]2C[C@H](O)[C@@H](CO)O2)cc1F : call = ?
Completion: active

Prompt: Entry COc1ccc(C2=N[C@@H](c3ccc(Cl)cc3)[C@H](c3ccc(Cl)cc3)N2C(=O)N2CCNC(=O)C2)c(OC(C)C)c1 : call = ?
Completion: active

Prompt: Entry CC(=O)O[C@@]1(C(C)=O)CC[C@H]2[C@@H]3C[C@H](C)C4=CC(=O)CC[C@]4(C)[C@@H]3CC[C@@]21C : call = ?
Completion: inactive

Prompt: Entry CO[C@H]1C[C@H]2CC[C@@H](C)[C@@](O)(O2)C(=O)C(=O)N2CCCC[C@H]2C(=O)O[C@H]([C@H](C)C[C@@H]2CC[C@H](OP(C)(C)=O)[C@H](OC)C2)CC(=O)[C@H](C)/C=C(\C)[C@@H](O)[C@@H](OC)C(=O)[C@H](C)C[C@H](C)/C=C/C=C/C=C/1C : call = ?
Completion: active

Prompt: Entry O=C1[C@H](CC[C@H](O)c2ccc(F)cc2)[C@H](c2ccc(O)cc2)N1c1ccc(F)cc1 : call = ?
Completion: inactive

Prompt: Entry Cc1cc(C)c(-c2csc(NC(=O)c3ccccc3)n2)c(C)c1 : call = ?
Completion: inactive

Prompt: Entry CCOC(=O)NCCCC(=O)NCCc1ccccc1 : call = ?
Completion: active

Prompt: Entry CO[C@H]1C[C@@H]2CC[C@@H](C)[C@@](O)(O2)C(=O)C(=O)N2CCCC[C@H]2C(=O)O[C@H]([C@@H](C)C[C@@H]2CC[C@@H](OCCO)[C@H](OC)C2)CC(=O)[C@H](C)/C=C(\C)[C@H](O)[C@@H](OC)C(=O)[C@H](C)C[C@H](C)/C=C/C=C/C=C/1C : call = ?
Completion: active

Prompt: Entry CCc1c2c(nc3ccc(OC(=O)N4CCC(N5CCCCC5)CC4)cc13)-c1cc3c(c(=O)n1C2)COC(=O)[C@@]3(O)CC : call = ?
Completion: inactive
